Every entry's value here was drawn from paper PMC8667944.

Target: NgCA (Neisseria gonorrhoeae)
Construct: gene cah; recombinant enzyme obtained in-house
Test: stopped-flow CO2 hydration assay
Assay type: biochemical
readout.name: Ki (nM)
Reply with just the number (in nM).

Exercise: Returns the measured Ki for the input compound. Input: `S=C(S)N1CCNCC1`
Key: 276

Exercise: Returns the measured Ki for the input compound. Input: `S=C(S)N1CCCCC1`
Key: 731

----------
Biological target: NgCA (Neisseria gonorrhoeae, UniProt Q50940)
Construct: gene cah; recombinant enzyme obtained in-house
Sequence (Q50940 27-252): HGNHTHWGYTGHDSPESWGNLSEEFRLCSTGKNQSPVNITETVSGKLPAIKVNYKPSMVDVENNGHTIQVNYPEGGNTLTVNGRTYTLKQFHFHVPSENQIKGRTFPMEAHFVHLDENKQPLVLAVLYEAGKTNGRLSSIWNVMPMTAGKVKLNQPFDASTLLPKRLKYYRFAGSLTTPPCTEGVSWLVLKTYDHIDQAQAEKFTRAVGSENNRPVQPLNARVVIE
Assay: stopped-flow CO2 hydration assay
Assay type: biochemical
Settings: read-out: Ki (nM)^a / NgCA
Note: every record was labeled by where its Ki sits among lo: < 400 nM; mid: ≥ 400 nM and < 500 nM; hi: ≥ 500 nM

Exercise: Please classify: O=C(O)C1CCCN(C(=S)S)C1 (racemic)
Key: lo

Exercise: Please classify: `CCCCN(CCCC)C(=S)S`
Key: mid

Exercise: Please classify: `O=C(O)[C@@H]1CCCN(C(=S)S)C1`
Key: lo

Exercise: Please classify: `OCCCNC(=S)S`
Key: mid

Exercise: Please classify: S=C(S)NC1CN2CCC1CC2 (racemic)
Key: mid

Exercise: Please classify: `S=C(S)N1CCN(C(=S)S)CC1`
Key: lo

Exercise: Please classify: `N#CC1(c2ccccc2)CCN(C(=S)S)CC1`
Key: lo

Exercise: Please classify: `CN(Cc1ccccc1)C(=S)S`
Key: hi

Exercise: Please classify: `S=C(S)N[C@@H]1CN2CCC1CC2`
Key: mid

Exercise: Please classify: `CC(C)CN(CC(C)C)C(=S)S`
Key: hi
